procedureSummary: PET hydrolysis product formed (TPA+MHET+BHET, UV-Vis) per mg enzyme (mmol/mg enzyme); higher = more PET depolymerisation activity; extreme values may be limits of the assay
measurementConditions: PET substrate: aFilm; 60 °C; pH 6.5; 2 h
Form field: PET hydrolysis product formed (one value per entry).
Lab note: record the figure alone, no unit after it.

Example entries begin here.
{"columns": ["residueString", "PET hydrolysis product formed"],
 "data": [
  ["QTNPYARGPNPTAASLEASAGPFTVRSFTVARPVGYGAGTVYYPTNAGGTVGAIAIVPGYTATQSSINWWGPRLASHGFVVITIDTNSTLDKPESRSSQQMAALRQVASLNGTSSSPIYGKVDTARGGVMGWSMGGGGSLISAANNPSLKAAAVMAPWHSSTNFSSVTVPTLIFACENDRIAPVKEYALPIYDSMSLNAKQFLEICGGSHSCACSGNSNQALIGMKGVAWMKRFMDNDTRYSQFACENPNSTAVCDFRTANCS [HotPETase]", 0.0257],
  ["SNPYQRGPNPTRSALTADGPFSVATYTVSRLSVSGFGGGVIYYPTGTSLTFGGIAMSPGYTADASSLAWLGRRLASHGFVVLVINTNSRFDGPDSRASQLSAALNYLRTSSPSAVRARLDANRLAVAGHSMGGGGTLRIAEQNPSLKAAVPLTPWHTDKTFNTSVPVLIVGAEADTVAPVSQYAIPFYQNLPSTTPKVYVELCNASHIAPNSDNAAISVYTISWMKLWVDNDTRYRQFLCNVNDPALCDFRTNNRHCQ [LCC-A2]", 0.061]
]}

Field: next sequence
query: Could you share which PET hydrolysis product formed value was measured for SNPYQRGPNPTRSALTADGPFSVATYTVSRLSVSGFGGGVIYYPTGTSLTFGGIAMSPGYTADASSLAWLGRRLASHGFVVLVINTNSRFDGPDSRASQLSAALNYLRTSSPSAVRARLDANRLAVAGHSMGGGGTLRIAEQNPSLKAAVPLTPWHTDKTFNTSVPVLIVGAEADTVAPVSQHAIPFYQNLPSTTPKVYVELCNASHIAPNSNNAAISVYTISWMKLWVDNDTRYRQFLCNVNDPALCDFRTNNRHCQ [LCC-ICCG] ?
result: 0.0377

###

procedureSummary: terephthalic acid (TPA) released, HPLC; higher = more TPA released; extreme values may be limits of the assay
measurementConditions: PET substrate: aFilm; 60 °C; pH 6.5; 24 h
quantityKind: terephthalic acid (mM)
Unit mM implied. Number only.

{"columns": ["residueString", "endpointUnit", "terephthalic acid"],
 "data": [
  ["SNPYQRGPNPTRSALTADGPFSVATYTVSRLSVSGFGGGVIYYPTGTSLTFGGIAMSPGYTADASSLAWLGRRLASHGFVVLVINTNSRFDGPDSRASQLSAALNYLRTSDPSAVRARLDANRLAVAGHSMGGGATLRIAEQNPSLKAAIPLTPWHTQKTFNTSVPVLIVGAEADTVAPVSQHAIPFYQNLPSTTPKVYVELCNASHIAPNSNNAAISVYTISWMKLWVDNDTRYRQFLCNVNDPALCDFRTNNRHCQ [LCC-ICCG DAQI]", "mM", 0.541],
  ["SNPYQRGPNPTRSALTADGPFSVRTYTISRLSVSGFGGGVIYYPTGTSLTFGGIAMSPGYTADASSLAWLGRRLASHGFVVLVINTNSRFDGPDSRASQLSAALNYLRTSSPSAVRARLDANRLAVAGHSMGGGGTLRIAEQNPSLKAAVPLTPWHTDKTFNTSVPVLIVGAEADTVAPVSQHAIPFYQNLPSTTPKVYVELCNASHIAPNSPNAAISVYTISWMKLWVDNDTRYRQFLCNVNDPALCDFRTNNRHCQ [LCC-ICCG RIP]", "mM", 0.423],
  ["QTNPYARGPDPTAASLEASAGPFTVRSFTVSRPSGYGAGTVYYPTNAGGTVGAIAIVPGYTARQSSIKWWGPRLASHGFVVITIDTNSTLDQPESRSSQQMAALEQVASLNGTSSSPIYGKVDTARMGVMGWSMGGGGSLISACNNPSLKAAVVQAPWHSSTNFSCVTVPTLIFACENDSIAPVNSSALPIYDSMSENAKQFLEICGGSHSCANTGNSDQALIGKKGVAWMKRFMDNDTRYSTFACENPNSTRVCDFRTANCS [Z1-PETase]", "mM", 0.227],
  ["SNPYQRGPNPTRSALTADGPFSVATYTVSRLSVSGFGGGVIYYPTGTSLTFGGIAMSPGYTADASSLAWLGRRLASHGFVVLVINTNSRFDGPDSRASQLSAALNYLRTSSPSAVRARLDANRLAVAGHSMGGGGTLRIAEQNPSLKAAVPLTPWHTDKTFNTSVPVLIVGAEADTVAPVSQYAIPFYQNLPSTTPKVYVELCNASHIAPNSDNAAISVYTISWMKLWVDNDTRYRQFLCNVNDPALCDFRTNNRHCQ [LCC-A2]", "mM", 1.34],
  ["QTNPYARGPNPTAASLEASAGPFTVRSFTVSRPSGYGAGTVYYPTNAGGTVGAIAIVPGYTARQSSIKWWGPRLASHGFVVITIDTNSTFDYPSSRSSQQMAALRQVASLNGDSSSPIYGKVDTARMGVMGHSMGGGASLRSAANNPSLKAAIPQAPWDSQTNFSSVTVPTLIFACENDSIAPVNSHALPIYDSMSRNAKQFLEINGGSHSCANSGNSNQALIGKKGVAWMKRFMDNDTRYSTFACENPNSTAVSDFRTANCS [DuraPETase]", "mM", 0]
]}

query: Could you share which terephthalic acid value was measured for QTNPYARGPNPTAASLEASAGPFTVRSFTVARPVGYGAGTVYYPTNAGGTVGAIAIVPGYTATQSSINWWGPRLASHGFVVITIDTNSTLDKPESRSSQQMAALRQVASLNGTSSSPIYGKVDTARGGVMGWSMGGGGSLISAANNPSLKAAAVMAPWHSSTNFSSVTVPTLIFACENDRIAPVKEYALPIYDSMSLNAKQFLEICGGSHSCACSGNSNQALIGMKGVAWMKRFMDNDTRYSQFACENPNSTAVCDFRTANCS [HotPETase] ?
result: 0.226

query: Would you mind doing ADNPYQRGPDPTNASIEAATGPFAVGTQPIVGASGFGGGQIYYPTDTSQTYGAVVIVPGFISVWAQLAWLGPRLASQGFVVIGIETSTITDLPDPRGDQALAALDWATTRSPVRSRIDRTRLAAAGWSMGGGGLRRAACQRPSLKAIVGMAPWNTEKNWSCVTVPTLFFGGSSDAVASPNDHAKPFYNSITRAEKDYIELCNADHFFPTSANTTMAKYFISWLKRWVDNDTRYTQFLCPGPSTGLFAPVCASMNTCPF [CaPETaseM9] as well?
result: 0.0535

query: Would you mind doing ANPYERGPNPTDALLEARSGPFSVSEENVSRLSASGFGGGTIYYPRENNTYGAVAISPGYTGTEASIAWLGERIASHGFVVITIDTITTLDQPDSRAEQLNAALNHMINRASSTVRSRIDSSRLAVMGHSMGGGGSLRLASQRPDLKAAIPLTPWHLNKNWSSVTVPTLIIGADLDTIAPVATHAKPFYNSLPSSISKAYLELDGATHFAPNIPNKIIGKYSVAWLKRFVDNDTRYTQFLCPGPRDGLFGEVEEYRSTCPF [TfCut2] as well?
result: 0.0508

query: Would you mind doing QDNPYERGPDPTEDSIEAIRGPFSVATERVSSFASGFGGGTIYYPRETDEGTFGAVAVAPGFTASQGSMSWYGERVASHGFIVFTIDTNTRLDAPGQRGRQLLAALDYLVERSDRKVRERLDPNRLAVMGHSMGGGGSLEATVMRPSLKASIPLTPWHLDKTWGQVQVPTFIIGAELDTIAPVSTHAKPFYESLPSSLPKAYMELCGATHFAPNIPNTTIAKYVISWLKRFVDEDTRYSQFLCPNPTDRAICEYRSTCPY [Cut190*SS] as well?
result: 0.00808
